Test system: triceps brachii beef muscles
Assay: Muscle pH, pre-rigor injection of whole muscle
Conditions: 0 h (before injection); 200 mM, calcium chloride 300 mM
endpoint-name: pH, 0 h

> print(dat)
                                   molecule  result.number
1  [F-].[Na+] [Sodium fluoride, sodium fluoride, reference compound]           6.76
2  [Ca+2].[Cl-].[Cl-] [Calcium chloride, calcium chloride, reference compound]           6.77
3  CC(=O)[O-].[Na+] [Sodium acetate, sodium acetate]           6.78
4  O=C([O-])CC(O)(CC(=O)[O-])C(=O)[O-].[Na+].[Na+].[Na+] [Sodium citrate, sodium citrate]           6.71
